# assay-target: T1, His-tagged CEACAM1 (human, UniProt P13688 35-428)
# T1 construct: 45 kDa SPR analyte; also called CEACAM1-HIS; CEACAM1 analyte
# T1 sequence: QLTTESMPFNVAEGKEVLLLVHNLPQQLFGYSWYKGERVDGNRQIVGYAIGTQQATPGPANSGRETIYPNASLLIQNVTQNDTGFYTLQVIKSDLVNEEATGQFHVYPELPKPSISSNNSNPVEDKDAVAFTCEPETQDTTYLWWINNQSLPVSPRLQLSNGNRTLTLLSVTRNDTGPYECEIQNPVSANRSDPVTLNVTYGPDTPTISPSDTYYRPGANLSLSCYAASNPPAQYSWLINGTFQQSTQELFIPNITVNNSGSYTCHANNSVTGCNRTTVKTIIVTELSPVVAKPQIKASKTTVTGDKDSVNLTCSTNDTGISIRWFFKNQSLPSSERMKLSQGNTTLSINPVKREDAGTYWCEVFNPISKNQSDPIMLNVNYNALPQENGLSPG
# measurement-notes: SPR single-cycle, purified IgG captured
value-kind: kon (M⁻¹ s⁻¹)

INSERT INTO results (binder, experimental_result) VALUES
  ('VH1/Vκ8 S29A (antibody, IgG4, V domains shown, IgG4 (S241P), kappa; also called Parent; Parent (VH1/Vκ8 S29A)) VH: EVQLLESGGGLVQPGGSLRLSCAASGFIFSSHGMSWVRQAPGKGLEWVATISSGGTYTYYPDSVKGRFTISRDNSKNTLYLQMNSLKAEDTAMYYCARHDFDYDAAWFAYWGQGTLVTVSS VL: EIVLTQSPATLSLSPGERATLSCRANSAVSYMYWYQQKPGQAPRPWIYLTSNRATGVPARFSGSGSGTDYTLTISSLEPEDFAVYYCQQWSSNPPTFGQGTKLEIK', 400000);
